Where these numbers come from: PubChem BioAssay (NCI)

- System: SR leukemia
- assayInfo: NCI-60 one-dose screen, 48 h (100 = growth as untreated, 0 = no growth, -100 = all killed)
- testParameters: 10 µM unless noted
About 83,000 compounds went through this panel and 20% of them were active in at least one assay; those are over-represented in the sample as a whole. Calls of active or inactive are those of the source. The calls were made as follows: active = growth percent below 10; inactive = the rest.

{"smilesNotation": "C#CCOc1cccc(Nc2c(Cl)c(CCl)nc3ccc(Oc4ccccc4)cc23)c1", "growth": "10.4% (inactive)"}
{"smilesNotation": "C(CCCSC1=NCCN1)CCSC1=NCCN1", "growth": "95.9% (inactive)"}
{"smilesNotation": "Oc1ccc(Cc2ccc(O)c3ncccc23)c2cccnc12", "growth": "9.74% (active)"}
{"smilesNotation": "C#Cc1cccc(Nc2nc(Cl)nc3cc(NC(=O)CCl)ccc23)c1", "growth": "-39.7% (active)"}

----------
- System: PC-3 prostate
- assayInfo: NCI-60 one-dose screen, 48 h (100 = growth as untreated, 0 = no growth, -100 = all killed)
- testParameters: 10 µM unless noted
The panel holds about 83,000 compounds, 20% with a hit somewhere; the sample as a whole holds those more often.

{"molecule": "Cc1ccc(Nc2nc(N)nc(N)c2N=O)cc1Cl", "growth, %": 70.8}
{"molecule": "COC(=O)[C@@H](Cc1c[nH]c2ccccc12)NC[C@@H](O)CN1C(=O)/C(=C\\c2cc(OC)c(OC)c(OC)c2)c2ccccc21", "growth, %": 46.2}
{"molecule": "O=C1OCC2=C1C(c1cccc(F)c1)c1cc3c(cc1N2CCO)CCC3 (centres undefined)", "growth, %": 24.2}
{"molecule": "CCCN1C2CCC1/C(=C\\c1ccc(OC)cc1)C(=O)/C2=C/c1ccc(OC)cc1", "growth, %": 64}
{"molecule": "CCN(CC)CCCNC(=O)c1c2c(n3ccccc13)C(=O)c1ncccc1C2=O", "growth, %": -19.8}
{"molecule": "O=c1ccc2nc(-c3ccccc3)nn(-c3ccccn3)c-2c1", "growth, %": 83.5}
{"molecule": "Cc1nc2ccccc2c(/C=C/c2ccc(Br)cc2)c1C(=O)/C=C/c1ccccc1", "growth, %": 19.7}
{"molecule": "COC(=O)c1c(C)nc(C)c2c1C(=O)C(Br)=C(NCCCCO)C2=O", "growth, %": 62.5}
{"molecule": "CCC(=C(c1ccc(OCCN(CC)CC)cc1)c1ccc(OCCN(CC)CC)cc1)c1ccc(Cl)cc1", "growth, %": -50.7}

----------
- Tested on: ACHN renal
- assayInfo: NCI-60 one-dose screen, 48 h
- testParameters: 10 µM unless noted
About 83,000 compounds went through this panel and 20% of them were active in at least one assay; those are over-represented in the sample as a whole. Calls of active or inactive are those of the source. Rule for the calls: active = growth percent below 10; inactive = the rest.
Classes used: active, inactive

{"molecule": "CCCCCCCCOC(=O)c1c(C)[nH]c(/C=C2\\N=C(c3ccc[nH]3)C=C2OC)c1C", "group": "active"}
{"molecule": "FC(F)(F)c1cccc(-c2nnn(Cc3cc(-c4cccc(Cl)c4)no3)n2)c1", "group": "inactive"}
{"molecule": "CC(C)(C)c1ccc(C(=O)Nc2sc3c(c2C#N)CCC(=O)C3)cc1", "group": "active"}
{"molecule": "Cc1cc(C)n(C(=O)CSc2nc3sc4c(c3c(=O)n2-c2ccccc2)CCCCC4)n1", "group": "inactive"}
{"molecule": "C#CCOc1cccc(Nc2ncnc3c(NC(=O)CCl)cccc23)c1", "group": "active"}
{"molecule": "CC1OC(C(=O)N2CCN(CCO)CC2)CC1COC1CCCCC1 (stereo not drawn)", "group": "inactive"}
{"molecule": "COc1ccc(S(=O)(=O)Oc2ccc(-c3sc4cc(OS(=O)(=O)c5ccc(OC)cc5)ccc4c3C(=O)c3ccc(OCCN4CCCCC4)cc3)cc2)cc1", "group": "inactive"}
{"molecule": "C#CCOc1ccc(C2=NN(CCCC)C3N=C(Cl)c4ncn(CCCC)c4N23)cc1OCC#C (stereo not drawn)", "group": "inactive"}
{"molecule": "COc1ccc(/C(C)=C(\\c2ccc(Cl)cc2)c2ccc(OCCCN(C)C)cc2)cc1", "group": "inactive"}
{"molecule": "Cc1nc2cccc(NCc3ccc(C(=O)NO)cc3)c2c(=O)n1-c1ccccc1", "group": "inactive"}
{"molecule": "O=c1c(/C=C/c2c(O)ccc3ccccc23)nnc2sc(-c3cccc([N+](=O)[O-])c3)nn12", "group": "inactive"}
{"molecule": "O=C(OCC(O)C(=O)NC12CC3CC(CC(C3)C1)C2)c1cccc(Br)c1 (stereo not drawn)", "group": "inactive"}
{"molecule": "O=c1[nH]c(CN2CCN(c3ccccc3)CC2)nc2c(Br)cc(Br)cc12", "group": "inactive"}
{"molecule": "Cc1ccc(C23CCC(=O)N2CCc2cncn23)cc1 (stereo not drawn)", "group": "inactive"}
{"molecule": "O=C1c2c(c3c4cc(F)ccc4oc3c3[nH]c4ccccc4c23)C(=O)N1O", "group": "active"}
{"molecule": "Cc1nc2c(c(-c3ccccc3)n1)Cc1c(ccc3ccccc13)O2", "group": "inactive"}
{"molecule": "CC1(C)CC[C@]2(CO)CC[C@]3(C)C(=CC[C@@H]4[C@@]5(C)CCNCC(C)(C)[C@@H]5CC[C@]43C)[C@@H]2C1", "group": "inactive"}
{"molecule": "N#CC1=C(N)Oc2c(ccc3cccnc23)C1c1ccccc1 (stereo not drawn)", "group": "inactive"}
{"molecule": "CCN1C(=O)N(CC)C2C1NN=c1s/c(=C3\\C(=O)N(C)c4ccccc43)c(=O)n12 (stereo not drawn)", "group": "inactive"}
{"molecule": "Nc1ncc(-c2ccc3ncnc(N4CCc5ccc(Cl)cc54)c3c2)cn1", "group": "active"}
{"molecule": "O=C(O)COc1ccc(F)cc1", "group": "inactive"}
{"molecule": "Cn1ncc(CC(=O)O)c1-n1nnc2cc(Cl)ccc2c1=O", "group": "inactive"}
{"molecule": "CC(C)=CCC[C@](C)(O)C1CC[C@]2(C)[C@@H]1CC[C@@H]1[C@@]3(C)CC/C(=N\\OCCC#N)C(C)(C)[C@@H]3CC[C@]12C (stereo partly drawn)", "group": "inactive"}
{"molecule": "O=C(/C=C/c1ccco1)Nc1ncc(Cc2ccc(F)cc2)s1", "group": "inactive"}
{"molecule": "C#Cc1cccc(Nc2nc(Cl)nc3cc(NC(=O)CCl)ccc23)c1", "group": "active"}
{"molecule": "Cc1cc(N2CCOCC2)nc(N(CCCNc2ccnc3cc(Cl)ccc23)Cc2ccc3c(c2)OCO3)n1", "group": "active"}
{"molecule": "FC(F)(F)c1cc(N2CCCCC2)nc(NCCCNc2ccnc3cc(Cl)ccc23)n1", "group": "inactive"}
{"molecule": "Cc1cc2c(C(C)C)c(O)c(O)c(/C=N/O)c2c(O)c1-c1c(C)cc2c(C(C)C)c(O)c(O)c(/C=N/O)c2c1O", "group": "inactive"}
